Origin of the recorded values: the Human Domainome abundance scans (Beltran et al. 2025)

B1: E3 ubiquitin-protein ligase NEDD4-like, residues 539 to 589; numbered along this chain, Q96PU5 (parent)
chain: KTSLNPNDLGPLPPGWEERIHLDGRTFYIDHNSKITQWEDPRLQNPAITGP

variants of: B1; assay: abundance fitness (aPCA) (normalised: wild type 0, dead -1); higher = more abundant; growth selection in yeast, the domain comes from the species named; conditions: Homo sapiens
Reported values of abundance fitness for individual entries
Format: numeric value only, no unit, no commentary.

Example entries begin here.
# MUTANT LABEL, abundance fitness
rows = [
    ("L12E", -0.563),
    ("I29Q", -0.176),
    ("Q44D", 0.028),
    ("E39K", -0.216),
]

[ask] Quick check: abundance fitness of T36P ?
[reply] -0.608

[ask] Quick check: abundance fitness of I20W ?
[reply] -0.228

[ask] Quick check: abundance fitness of F27L ?
[reply] -0.039
